I'd be grateful if you could share measured TGI for these entries.
test system: LOX IMVI melanoma; experiment: NCI tumour cell line growth inhibition, 48 h

Exercise: GET /values?readout=TGI&item= "C=CCc1cccc2cc(C(=O)Nc3ccccc3)c(=N)oc12"
Solution: > 100 µM

Exercise: GET /values?readout=TGI&item= "Clc1cc(Cl)cc(C=NC23CC4CC(CC(C4)C2)C3)c1"
Solution: > 10 µM

Exercise: GET /values?readout=TGI&item= O=C(O)C1C2CCC(O2)C1C(=O)Nc1cccc2cccnc12 (stereo not drawn)
Solution: > 100 µM

---

tested on: MOLT-4 leukemia; test: NCI tumour cell line growth inhibition, 48 h
measurement_type: TGI

Exercise: Please tell me: TGI of "COc1ccc(C(=O)/C=C/c2cccc([N+](=O)[O-])c2)c(OC)c1" , system MOLT-4 leukemia?
Solution: 3.88 µM

Exercise: Please tell me: TGI of "COc1cc2c3c(n(CCCCN)c(=O)c2cc1OC)-c1cc2c(cc1C3=O)OCO2" , system MOLT-4 leukemia?
Solution: 2.95 µM

Exercise: Please tell me: TGI of "COc1ccc2c(c1)[n+]([O-])c(-c1ccc(OC)c(OC)c1)c(N)[n+]2[O-]" , system MOLT-4 leukemia?
Solution: > 100 µM

Exercise: Please tell me: TGI of "CN[C@H](C#Cc1c(F)ccc2c1/C(=C/c1[nH]ccc1OC)C(=O)N2)CO" , system MOLT-4 leukemia?
Solution: 3.8 µM

Exercise: Please tell me: TGI of "Nc1cccc(/C=C/C(=O)N2CCN(CCOC(c3ccccc3)c3ccccc3)CC2)c1" , system MOLT-4 leukemia?
Solution: 21.2 µM

Exercise: Please tell me: TGI of CC12CC3OC(=O)C1COC14OC5(C2C1=O)C(O)(CCC1C4CC(O)C2(O)CC=CC(=O)C12C)C(=O)OC35C (configuration not stated) , system MOLT-4 leukemia?
Solution: > 100 µM

Exercise: Please tell me: TGI of "NC(=O)c1ccccc1Nc1ccc2nnc(-c3ccncc3)n2n1" , system MOLT-4 leukemia?
Solution: 30.4 µM

Exercise: Please tell me: TGI of "CCCN(CCCc1ccccc1)CCc1ccc2[nH]c(=S)[nH]c2c1" , system MOLT-4 leukemia?
Solution: 54 µM

Exercise: Please tell me: TGI of "Cc1ccccc1C(=O)N/N=C/c1ccc(Sc2nccn2C)c([N+](=O)[O-])c1" , system MOLT-4 leukemia?
Solution: > 100 µM

Exercise: Please tell me: TGI of "NCCCCc1cc(O)c2c(c1O)C(=O)c1ccccc1C2=O" , system MOLT-4 leukemia?
Solution: 10.1 µM

Exercise: Please tell me: TGI of Cc1cn(C2CC(O)C(COC(=O)NCCC(F)(F)C(F)(F)C(F)(F)C(F)(F)F)O2)c(=O)[nH]c1=O (configuration not stated) , system MOLT-4 leukemia?
Solution: > 100 µM

Exercise: Please tell me: TGI of C=CCC(N(C)C(=O)[C@H](Cc1ccccc1)NC(=O)OCc1ccccc1)P(=O)(Oc1ccccc1)Oc1ccccc1 (some centres not stated) , system MOLT-4 leukemia?
Solution: > 100 µM

Exercise: Please tell me: TGI of C[C@]12CCC(=O)C=C1CC[C@@H]1C2CC[C@]2(C)Nc3c(cnn3-c3ccccc3)CC12 (some centres not stated) , system MOLT-4 leukemia?
Solution: > 100 µM

Exercise: Please tell me: TGI of "COc1cccc(-c2nn(-c3ccccc3)cc2-c2ccnc(NCCCNC(=O)Nc3ccc(Cl)c(Cl)c3)c2)c1" , system MOLT-4 leukemia?
Solution: 5.85 µM

Exercise: Please tell me: TGI of COC1OC(CBr)C(OC(=O)c2ccccc2)C(O)C1Br (configuration not stated) , system MOLT-4 leukemia?
Solution: > 100 µM

Exercise: Please tell me: TGI of "O=c1[nH]nc2ccccc2c1Cc1ccccc1" , system MOLT-4 leukemia?
Solution: > 100 µM

Exercise: Please tell me: TGI of "COC(=O)c1sc(=S)sc1SCc1ccc(CSc2sc(=S)sc2C(=O)OC)cc1" , system MOLT-4 leukemia?
Solution: > 100 µM

Exercise: Please tell me: TGI of "CN1CNc2nc(N)n(C)c(=O)c2C1" , system MOLT-4 leukemia?
Solution: > 10 µM

Exercise: Please tell me: TGI of Nc1nc(SCc2ccc([N+](=O)[O-])cc2)nc2c1ncn2C1OC(CO)C(O)C1O (configuration not stated) , system MOLT-4 leukemia?
Solution: > 100 µM

Exercise: Please tell me: TGI of "CC(=O)C(=Cc1ccc(C=C(C(C)=O)C(C)=O)cc1)C(C)=O" , system MOLT-4 leukemia?
Solution: 3.6 µM

Exercise: Please tell me: TGI of O=c1ccn(C2CC(O)C(CO)O2)c(=O)[nH]1 (configuration not stated) , system MOLT-4 leukemia?
Solution: > 5000 µM

Exercise: Please tell me: TGI of "CC1(N)CCN(c2cccnc2NC(=O)c2nc(-c3ncccc3C(F)(F)F)cnc2N)CC1" , system MOLT-4 leukemia?
Solution: 69.7 µM

Exercise: Please tell me: TGI of "CC[C@@H]1CC[C@@H]2[C@H](CC[C@]3(C)[C@@H](OS(=O)(=O)c4ccc(C)cc4)CC[C@@H]23)[C@H]1COS(=O)(=O)c1ccc(C)cc1" , system MOLT-4 leukemia?
Solution: > 100 µM

Exercise: Please tell me: TGI of "O=C(Nc1ccncc1)C(=O)c1cn(Cc2ccc(Cl)cc2)c2ccccc12" , system MOLT-4 leukemia?
Solution: > 100 µM

Exercise: Please tell me: TGI of "CCN(CC(=O)O)C(=O)c1cccnc1" , system MOLT-4 leukemia?
Solution: > 100 µM

Exercise: Please tell me: TGI of "Clc1cc(Cl)cc(C=NC23CC4CC(CC(C4)C2)C3)c1" , system MOLT-4 leukemia?
Solution: > 10 µM

Exercise: Please tell me: TGI of "Cc1cc(NCCCCCCNc2cc(C)nc3cc(N(C)C)ccc23)c2ccc(N(C)C)cc2n1" , system MOLT-4 leukemia?
Solution: > 100 µM

Exercise: Please tell me: TGI of Cc1c(N2C(=O)CS(=O)(=O)C2c2cccc(Oc3ccccc3)c2)c(=O)n(-c2ccccc2)n1C (configuration not stated) , system MOLT-4 leukemia?
Solution: > 100 µM

Exercise: Please tell me: TGI of "CN(C)CCN(C)c1ccc2c(=O)n(CCN(C)C)c(=O)n3c4ccccc4c(=O)c1c23" , system MOLT-4 leukemia?
Solution: 0.135 µM

Exercise: Please tell me: TGI of COc1cc2oc3cc(=O)cc4oc(-c5ccccc5)cc(c2c2c1CCC(c1ccccc1)O2)c43 (configuration not stated) , system MOLT-4 leukemia?
Solution: > 100 µM

Exercise: Please tell me: TGI of "CCOC(=O)c1c2c(n(Cc3ccc(Cl)cc3Cl)c1C)-c1nc[nH]c1C(=O)C2=O" , system MOLT-4 leukemia?
Solution: 3.97 µM

Exercise: Please tell me: TGI of COc1ccc2c3c1O[C@H]1C(OC)C=CC4C(C2)N(Cc2cccs2)CCC341 (some centres not stated) , system MOLT-4 leukemia?
Solution: > 100 µM
